system: Radical scavenging activity; assay: Antioxidant activity assessed as DPPH radical scavenging activity at 10 ug/mL after 30 min by spectrophotometric analysis relative to control; type: functional
# yes = Activity below 80% (exclusive); no = Activity at/above 80%

These solved cases illustrate the format of a correct answer.
compound	target	label
CC1(c2cc(O)ccc2O)NNC(=O)CO1 (stereo unspecified)	Radical scavenging activity	yes
CC1(c2cccc(O)c2)NNC(=O)CO1 (stereo unspecified)	Radical scavenging activity	no
CC1(c2ccc(O)cc2)NNC(=O)CO1 (stereo unspecified)	Radical scavenging activity	yes
CC1(c2ccccc2)NNC(=O)CO1 (stereo unspecified)	Radical scavenging activity	yes

Continue with the next compound.
stdin: Input O=C1O[C@H]([C@@H](O)CO)C(O)=C1O ; condition: Activity strictly below 80%. Does it hold?
stdout: no

Hello, the source for this data is ChEMBL document CHEMBL3045916, in case you need it.
